B1: MNAT1 (parent)
chain: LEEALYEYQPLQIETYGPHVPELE

variants of: B1; experiment: protein stability index of a GFP-peptide fusion (GPS, HEK-293T) (PSI 1-6); higher = more stable; details: c terminus: a fixed tail appended;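 further: lentivirally expressed fusions sorted by FACS into six bins by GFP to DsRed ratio, PSI derived from sequencing read proportions per bin multiplied by bin number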
Lab note: class by protein stability index, see Low: < 2; Mid: ≥ 2 and < 3; High: ≥ 3

A selection of reference data follows.
# input Determine which band this variant sits in: "T15C"
# output Mid

# input Determine which band this variant sits in: "H19Q"
# output Mid

Now let's try a different one.
# input Determine which band this variant sits in: "Y8D"
# output High

Recorded values, source the supplement of paper PMC10567573.
